Data origin: the Immune Epitope Database (IEDB)

- STUDY_SYSTEM: HLA-B*07:02
- METHOD: IEDB peptide-MHC binding, purified MHC/direct/fluorescence; filed as Kd, often an IC50 or EC50 that approximates it; bounds were set here for any values at or beyond the usual limits of such assays
- STUDY_CONDITIONS: source organism: Salmonella enterica
pKd: −log10 of the molar value.
MEASURE_NAME: pKd

>>> df
    sequence  study_system  data_value
0  AHSKAETEA   HLA-B*07:02      ≤ 4.70

###

- STUDY_SYSTEM: HLA-B*44:02
- METHOD: IEDB peptide-MHC binding, purified MHC/direct/fluorescence; filed as Kd, often an IC50 or EC50 that approximates it; bounds were set here for any values at or beyond the usual limits of such assays
- STUDY_CONDITIONS: source organism: Salmonella enterica
pKd: −log10 of the molar value.
MEASURE_NAME: pKd

In [3]: df
Out[3]:
    sequence  data_value
0  AHSKAETEA      ≤ 4.70
